# Test system: CD4+ antigen-specific human helper T-cell clone (TCC)
# measurement notes: Antigen-specific stimulation of the helper T-cell clone (TCC) by monocyte-derived dendritic cells, T-cell proliferation (3H-thymidine)
# Assay type: cell-based
# assay conditions: Dpt-pulsed M-DC, M-DC/T-cell ratio 1/50, 4 day culture
Each record here notes measured IC50.

{"compound": "CC[C@@H]1C[C@H](OC)[C@@H]2O[C@@]1(O)C(=O)C(=O)N1CCCC[C@H]1C(=O)O[C@H](/C(C)=C/[C@@H]1CC[C@H](Cl)[C@H](OC)C1)[C@H](C)[C@@H](O)CC(=O)[C@H](CC)/C=C(\\C)C[C@H](C)C[C@@H]2OC [Compound 27-ethyl-ASM]", "IC50 [nM]": 4.6}
{"compound": "CC[C@H]1C/C(C)=C/[C@@H](CC)C(=O)C[C@H](O)[C@@H](C)[C@@H](/C(C)=C/[C@@H]2CC[C@H](Cl)[C@H](OC)C2)OC(=O)[C@@H]2CCCCN2C(=O)C(=O)[C@]2(O)O[C@H]([C@@H](OC)C1)[C@@H](OC)C[C@H]2C [Compound 21-ethyl-ASM]", "IC50 [nM]": 1.6}
{"compound": "CC[C@@H]1C[C@H](OC)[C@@H]2O[C@@]1(O)C(=O)C(=O)N1CCCC[C@H]1C(=O)O[C@H](/C(C)=C/[C@@H]1CC[C@@H](O)[C@H](OC)C1)[C@H](C)[C@@H](O)CC(=O)[C@H](CC)/C=C(\\C)C[C@H](C)C[C@@H]2OC [27-ethyl-ascomycin]", "IC50 [nM]": 0.88}
{"compound": "CC/C1=C\\[C@@H](CC)C(=O)C[C@H](O)[C@@H](C)[C@@H](/C(C)=C/[C@@H]2CC[C@H](Cl)[C@H](OC)C2)OC(=O)[C@@H]2CCCCN2C(=O)C(=O)[C@]2(O)O[C@H]([C@@H](OC)C[C@@H](C)C1)[C@@H](OC)C[C@H]2C [Compound 19-ethyl-ASM]", "IC50 [nM]": 6.8}
{"compound": "CC[C@H]1C/C(C)=C/[C@@H](CC)C(=O)C[C@H](O)[C@@H](C)[C@@H](/C(C)=C/[C@@H]2CC[C@@H](O)[C@H](OC)C2)OC(=O)[C@@H]2CCCCN2C(=O)C(=O)[C@]2(O)O[C@H]([C@@H](OC)C1)[C@@H](OC)C[C@H]2C [21-ethyl-ascomycin]", "IC50 [nM]": 0.33}
